Tested on: SK-MEL-5
Experiment: Growth inhibition of human SK-MEL-5 cells assessed as cell growth at 10^-5 M incubated for 48 hrs by sulforhodamine B assay relative to control
Assay type: functional
Details: SK-MEL-5, 48 h, read-out: Activity
Measurement Type: growth at 10 µM

Lookup: Find the recorded growth at 10 µM belonging to Cc1n[nH]c2c1C(c1ccc(C3NCCc4c3[nH]c3ccccc43)cc1)C(C#N)=C(N)O2 (configuration not stated) and report it.
Found: 89.4%

Lookup: // query growth at 10 µM value for entry Cc1ccc(S(=O)(=O)N2CCc3c([nH]c4ccccc34)C2c2ccc(-c3nc4ccccc4[nH]3)cc2)cc1 (configuration not stated)
Found: 89.8%

Lookup: Looking for the measured growth at 10 µM of Cc1ccc(S(=O)(=O)N2CCc3c([nH]c4ccccc34)C2c2ccc(C=O)cc2)cc1 (configuration not stated) , can you help?
Found: 89.8%

Lookup: State the recorded growth at 10 µM for this entry: c1ccc2[nH]c(-c3ccc(-c4nccc5c4[nH]c4ccccc45)cc3)nc2c1
Found: 16 to 62.6%

Lookup: // growth at 10 µM lookup, key: c1ccc2c(c1)[nH]c1c(-c3ccc(-c4nccc5c4[nH]c4ccccc45)cc3)nccc12
Found: 79%

Lookup: Given the entry O=Cc1ccc(C2NCCc3c2[nH]c2ccccc32)cc1 (configuration not stated) , report its measured growth at 10 µM.
Found: 93%

Lookup: For the compound c1ccc2[nH]c(-c3ccc(C4NCCc5c4[nH]c4ccccc54)cc3)nc2c1 (configuration not stated) , what growth at 10 µM is on record?
Found: 96.5%

* * *

System: OVCAR-8
Assay: Growth inhibition of human OVCAR8 cells assessed as cell growth at 10^-5 M incubated for 48 hrs by sulforhodamine B assay relative to control
Format: functional
Details: OVCAR-8, 48 h, read-out: Activity
Measurement Type: growth at 10 µM (%)
Number in %, nothing else.

Lookup: Need growth at 10 µM, item Cc1ccc(S(=O)(=O)N2CCc3c([nH]c4ccccc34)C2c2ccc(-c3nc4ccccc4[nH]3)cc2)cc1 (stereo not drawn)
Found: 98.2

Lookup: Item under review: Cc1ccc(S(=O)(=O)N2CCc3c([nH]c4ccccc34)C2c2ccc(C=O)cc2)cc1 (stereo not drawn) . Reported growth at 10 µM?
Found: 98.2

Lookup: Quick one: growth at 10 µM of c1ccc2c3c([nH]c2c1)C(c1ccc(C2NCCc4c2[nH]c2ccccc42)cc1)NCC3 (racemic) ?
Found: -41.5

Lookup: Which growth at 10 µM is reported for this compound? O=Cc1ccc(C2NCCc3c2[nH]c2ccccc32)cc1 (stereo not drawn)
Found: 105

Lookup: growth at 10 µM for c1ccc2[nH]c(-c3ccc(C4NCCc5c4[nH]c4ccccc54)cc3)nc2c1 (stereo not drawn) ?
Found: 99.2

Lookup: # growth at 10 µM lookup, item c1ccc2c(c1)[nH]c1c(-c3ccc(-c4nccc5c4[nH]c4ccccc45)cc3)nccc12
Found: 111

Lookup: Which growth at 10 µM is reported for this compound? Cc1n[nH]c2c1C(c1ccc(C3NCCc4c3[nH]c3ccccc43)cc1)C(C#N)=C(N)O2 (stereo not drawn)
Found: 104

* * *

Tested on: MDA-MB-231
Experiment: Growth inhibition of human MDA-MB-231 cells assessed as cell growth at 10^-5 M incubated for 48 hrs by sulforhodamine B assay relative to control
Type: functional
Conditions: MDA-MB-231, 48 h, read-out: Activity
Label class 0 if growth at 10 µM falls below 80%; label class 1 in every other case.

Lookup: Can c1ccc2[nH]c(-c3ccc(C4NCCc5c4[nH]c4ccccc54)cc3)nc2c1 (stereo unspecified) be said to have growth at 10 µM at or above 80%?
Found: class 1

Lookup: Given O=Cc1ccc(C2NCCc3c2[nH]c2ccccc32)cc1 (stereo unspecified) , state whether its growth at 10 µM is at least 80%.
Found: class 0

Lookup: Could you please find out whether Cc1ccc(S(=O)(=O)N2CCc3c([nH]c4ccccc34)C2c2ccc(C=O)cc2)cc1 (stereo unspecified) has growth at 10 µM that meets 80% or exceeds it?
Found: class 0

Lookup: I'd appreciate it if you could say whether c1ccc2c(c1)[nH]c1c(-c3ccc(-c4nccc5c4[nH]c4ccccc45)cc3)nccc12 has growth at 10 µM at least equal to 80%.
Found: class 1

Lookup: Textbook exercise: given the entry Cc1n[nH]c2c1C(c1ccc(C3NCCc4c3[nH]c3ccccc43)cc1)C(C#N)=C(N)O2 (stereo unspecified) , state whether its growth at 10 µM is greater than or equal to 80%.
Found: class 0

Lookup: Could you verify whether the entry Cc1ccc(S(=O)(=O)N2CCc3c([nH]c4ccccc34)C2c2ccc(-c3nc4ccccc4[nH]3)cc2)cc1 (stereo unspecified) shows growth at 10 µM of no less than 80%?
Found: class 0
